Biological target: Glutaminase(Brain) (Mus musculus)
Sequence (D3Z7P3 55-674): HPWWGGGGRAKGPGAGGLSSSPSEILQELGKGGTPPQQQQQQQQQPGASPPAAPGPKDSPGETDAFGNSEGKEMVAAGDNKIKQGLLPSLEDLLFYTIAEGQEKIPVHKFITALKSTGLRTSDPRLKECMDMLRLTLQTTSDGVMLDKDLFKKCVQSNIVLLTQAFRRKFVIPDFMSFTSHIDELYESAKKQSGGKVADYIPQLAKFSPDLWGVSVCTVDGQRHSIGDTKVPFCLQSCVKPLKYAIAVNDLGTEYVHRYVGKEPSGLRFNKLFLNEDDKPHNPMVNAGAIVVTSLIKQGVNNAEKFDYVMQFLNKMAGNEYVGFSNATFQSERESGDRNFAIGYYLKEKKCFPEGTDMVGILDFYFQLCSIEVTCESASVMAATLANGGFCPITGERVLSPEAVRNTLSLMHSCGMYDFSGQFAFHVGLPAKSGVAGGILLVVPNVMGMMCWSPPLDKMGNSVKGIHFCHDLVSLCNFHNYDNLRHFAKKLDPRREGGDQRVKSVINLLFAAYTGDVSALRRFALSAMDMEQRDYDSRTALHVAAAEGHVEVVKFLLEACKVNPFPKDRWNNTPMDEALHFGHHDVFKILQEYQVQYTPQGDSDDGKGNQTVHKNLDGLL
Assay: Glutaminase enzyme activity using glutaminase enzyme from mice brain/kidney homogenate (Nessler's reagent, ammonia)
Type: biochemical
Details: 1 μM; mice brain homogenate; read-out: Glutaminase(Brain) activity % inhibition @1 μM
readout.type: inhibition at 1 µM

compound	readout.type	reported.result
O=C(Cc1cccc(OC(F)(F)F)c1)Nc1ccc(N2CCCC(c3nnc(NC(=O)Cc4ccccn4)s3)C2)cn1 (racemic) [Example 2]	inhibition at 1 µM	25 to 50%
O=C(Cc1ccccn1)Nc1ccc(N2CCC(c3nnc(NC(=O)Cc4cccc(F)c4F)s3)CC2)nn1	inhibition at 1 µM	75 to 100%
CS(=O)(=O)Nc1cccc(CC(=O)Nc2nnc(C3CCN(c4ccc(NC(=O)Cc5cccc(OC(F)(F)F)c5)nn4)CC3)s2)c1	inhibition at 1 µM	50 to 75%
O=C(Cc1ccccc1F)Nc1ccc(N2CCC(c3nnc(NC(=O)Cc4cnccn4)s3)CC2)nn1	inhibition at 1 µM	50 to 75%

====

System: MDA-MB-231
Experiment: In vitro cell proliferation assay (MTT), MDA-MB-231
Type: cell-based
Conditions: Homo sapiens, 72 hours

compound	GI50
O=C(Cc1ccccn1)Nc1ccc(N2CCC(c3nnc(NC(=O)Cc4cccc(OC(F)(F)F)c4)s3)CC2)nn1 [Example-17]	< 100 nM
O=C(Cc1ccccc1F)Nc1ccc(N2CCC(c3nnc(NC(=O)Cc4ccccn4)s3)CC2)nn1 [Example-14]	< 100 nM
O=C(Cc1ccccc1Cl)Nc1ccc(N2CCC(c3nnc(NC(=O)Cc4ccccn4)s3)CC2)nn1 [Example-12]	< 100 nM

====

Molecular target: Glutaminase(Brain) (Mus musculus)
Sequence (D3Z7P3 55-674): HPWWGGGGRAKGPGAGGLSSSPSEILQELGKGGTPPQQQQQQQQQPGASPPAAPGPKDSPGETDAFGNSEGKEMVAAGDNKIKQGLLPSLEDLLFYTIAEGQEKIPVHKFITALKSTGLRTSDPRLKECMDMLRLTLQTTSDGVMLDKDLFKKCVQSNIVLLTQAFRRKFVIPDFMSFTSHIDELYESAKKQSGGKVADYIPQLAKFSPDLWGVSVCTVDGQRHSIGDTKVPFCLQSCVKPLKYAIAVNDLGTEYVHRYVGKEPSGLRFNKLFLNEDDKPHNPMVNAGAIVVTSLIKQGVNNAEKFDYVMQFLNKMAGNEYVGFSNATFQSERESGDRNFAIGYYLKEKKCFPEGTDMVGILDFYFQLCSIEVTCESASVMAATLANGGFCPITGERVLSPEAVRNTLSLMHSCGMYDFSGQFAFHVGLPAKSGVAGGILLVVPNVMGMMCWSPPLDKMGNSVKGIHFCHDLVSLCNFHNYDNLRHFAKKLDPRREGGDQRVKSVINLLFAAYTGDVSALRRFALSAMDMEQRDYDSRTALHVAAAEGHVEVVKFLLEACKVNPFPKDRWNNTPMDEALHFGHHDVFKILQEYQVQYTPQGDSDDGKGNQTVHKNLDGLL
Assay: Glutaminase enzyme activity using glutaminase enzyme from mice brain/kidney homogenate (Nessler's reagent, ammonia)
Assay type: biochemical
Settings: read-out: Glutaminase(Brain) activity % inhibition @1 μM
readout.type: inhibition at 1 µM

molecule	target.entity	reported.result
O=C(Cc1cccc(OC(F)(F)F)c1)Nc1ccc(N2CCC(c3nnc(NC(=O)Cc4ccccn4)s3)CC2)cn1 [Example 1]	Glutaminase(Brain) (Mus musculus)	50 to 75%
O=C(Cc1ccccn1)Nc1ccc(N2CCC(c3nnc(NC(=O)Cc4cccc(OC(F)(F)F)c4)s3)CC2)nn1 [Example-17]	Glutaminase(Brain) (Mus musculus)	75 to 100%
O=C(Cc1cccc(OC(F)(F)F)c1)Nc1ccc(N2CCC(c3nnc(NC(=O)Cc4ccccn4)s3)CC2)nn1 [Example-8]	Glutaminase(Brain) (Mus musculus)	75 to 100%
O=C(Cc1cccc(OC(F)(F)F)c1)Nc1ccc(N2CCCC(c3nnc(NC(=O)Cc4ccccn4)s3)C2)nn1 (stereo not shown) [Example-9]	Glutaminase(Brain) (Mus musculus)	75 to 100%

Numbers sourced from patent US10611759B2.
